meta.source: BigSolDB 2.1

conditions: in acetylacetone, 318.15 K
test.readout: solubility (mole fraction)

                                smiles_text  endpoint_result
0  Cc1ccc[n+](CCCC[n+]2cccc(C)c2)c1.F[P-](F)(F)(F)(F)F.F[P-](F)(F)(F)(F)F          0.00598

====

conditions: in cyclohexanone, 288.15 K
test.readout: solubility (mole fraction)

>>> df
                                smiles_text                test_readout  endpoint_result
0  Cc1ccc[n+](CCCC[n+]2cccc(C)c2)c1.F[P-](F)(F)(F)(F)F.F[P-](F)(F)(F)(F)F  solubility (mole fraction)         0.000205

====

details: in acetylacetone, 328.15 K
test.readout: solubility (mole fraction)

>>> df
                                smiles_text  endpoint_result
0  Cc1ccc[n+](CCCC[n+]2cccc(C)c2)c1.F[P-](F)(F)(F)(F)F.F[P-](F)(F)(F)(F)F           0.0101

====

conditions: in acetylacetone, 313.15 K
test.readout: solubility (mole fraction)

In [3]: df
Out[3]:
                                smiles_text                test_readout  endpoint_result
0  Cc1ccc[n+](CCCC[n+]2cccc(C)c2)c1.F[P-](F)(F)(F)(F)F.F[P-](F)(F)(F)(F)F  solubility (mole fraction)          0.00462

====

conditions: in cyclohexanone, 318.15 K
test.readout: solubility (mole fraction)

>>> df
                                smiles_text                test_readout  endpoint_result
0  Cc1ccc[n+](CCCC[n+]2cccc(C)c2)c1.F[P-](F)(F)(F)(F)F.F[P-](F)(F)(F)(F)F  solubility (mole fraction)          0.00146

====

settings: in cyclohexanone, 333.15 K
test.readout: solubility (mole fraction)

>>> print(df.to_string())
                                smiles_text  endpoint_result
0  Cc1ccc[n+](CCCC[n+]2cccc(C)c2)c1.F[P-](F)(F)(F)(F)F.F[P-](F)(F)(F)(F)F          0.00186

====

conditions: in acetophenone, 328.15 K
test.readout: solubility (mole fraction)

                                smiles_text  endpoint_result
0  Cc1ccc[n+](CCCC[n+]2cccc(C)c2)c1.F[P-](F)(F)(F)(F)F.F[P-](F)(F)(F)(F)F          0.00428

====

details: in acetophenone, 313.15 K
test.readout: solubility (mole fraction)

>>> print(df.to_string())
                                smiles_text  endpoint_result
0  Cc1ccc[n+](CCCC[n+]2cccc(C)c2)c1.F[P-](F)(F)(F)(F)F.F[P-](F)(F)(F)(F)F          0.00183

====

conditions: in acetophenone, 298.15 K
test.readout: solubility (mole fraction)

In [3]: df
Out[3]:
                                smiles_text                test_readout  endpoint_result
0  Cc1ccc[n+](CCCC[n+]2cccc(C)c2)c1.F[P-](F)(F)(F)(F)F.F[P-](F)(F)(F)(F)F  solubility (mole fraction)         0.000748
